Tested on: FXR:RXRa (NR concentration 270 nM, RXRa partner concentration 90 nM)
Assay: PBM binding z-score (relative to random genomic background probes); higher = stronger binding; sequences stand for … in GC…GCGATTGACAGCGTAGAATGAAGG
assay-readout: PBM binding z-score
// no unit string in output, number only

Take a look at these entries with their results.
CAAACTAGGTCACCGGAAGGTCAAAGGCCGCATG
6.24
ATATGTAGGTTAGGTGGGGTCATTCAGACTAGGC
5.01
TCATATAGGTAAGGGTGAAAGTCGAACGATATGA
0.857

Return PBM binding z-score measured with FXR:RXRa (NR concentration 270 nM, RXRa partner concentration 90 nM) given this sequence: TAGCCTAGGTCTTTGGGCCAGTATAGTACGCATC -0.684

How about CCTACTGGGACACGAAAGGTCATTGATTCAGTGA ? 3.84

How about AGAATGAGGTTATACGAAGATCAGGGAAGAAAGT ? 2.26
